Molecular target: human recombinant histamine H1 receptor (Homo sapiens)
Construct: expressed in transfected cells; host or cells: CHO cells
Sequence (P35367 whole entry): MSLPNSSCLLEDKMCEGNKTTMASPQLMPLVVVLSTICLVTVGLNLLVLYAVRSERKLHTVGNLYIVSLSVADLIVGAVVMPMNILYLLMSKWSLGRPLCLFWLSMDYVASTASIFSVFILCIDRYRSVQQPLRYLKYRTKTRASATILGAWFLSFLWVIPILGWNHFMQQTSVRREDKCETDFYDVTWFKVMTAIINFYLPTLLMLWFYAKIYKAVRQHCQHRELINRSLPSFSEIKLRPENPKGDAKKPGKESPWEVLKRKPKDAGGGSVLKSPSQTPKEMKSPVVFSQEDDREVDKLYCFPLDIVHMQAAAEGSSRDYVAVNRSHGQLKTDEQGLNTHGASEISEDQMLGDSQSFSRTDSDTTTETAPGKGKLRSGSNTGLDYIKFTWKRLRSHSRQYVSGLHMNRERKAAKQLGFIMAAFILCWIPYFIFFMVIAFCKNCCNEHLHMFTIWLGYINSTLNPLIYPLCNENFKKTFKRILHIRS
Assay: Histamine H1 radioligand binding ([3H]Pyrilamine)
Settings: percent inhibition of specific binding; screened at 1 μM; read-out: Inhibition of ligand binding, Hist. H1
The following compounds are listed with their measured inhibition at 1 µM values.

- compound: "CCOC(=O)c1ccc(CCn2c3c(c4cc(C)ccc42)CN(C)CC3)cn1 [Compound 275]"
  inhibition at 1 µM: "92%"
- compound: "Cc1ccc2c(c1)c1c(n2CCc2ccccc2)CCNC1 [Compound 228]"
  inhibition at 1 µM: "81%"
- compound: "COc1ccc(CCn2c3c(c4cc(C)ccc42)CN(C)CC3)cc1 [Compound 247]"
  inhibition at 1 µM: "100%"
- compound: "Cc1ccc2c(c1)c1c(n2CCc2ccccc2)CCN(C(=O)OCC(Cl)(Cl)Cl)C1 [Compound 227]"
  inhibition at 1 µM: "-5%"
- compound: "Cc1ccc2c(c1)c1c(n2CCc2ccccn2)CCN(C)C1 [Compound 21]"
  inhibition at 1 µM: "79%"
- compound: "CCN1CCc2c(c3cc(C)ccc3n2Cc2ccccc2)C1 [Compound 140]"
  inhibition at 1 µM: "15%"
- compound: "CN1CCc2c(c3cc(OC(F)(F)F)ccc3n2CCc2ccc(C(F)(F)F)nc2)C1 [Compound 341]"
  inhibition at 1 µM: "28%"
- compound: "Cc1ccc(CCn2c3c(c4cc(C(F)(F)F)ccc42)CN(C)CC3)cc1 [Compound 47]"
  inhibition at 1 µM: "81%"
- compound: "Cc1ccc2c(n1)c1c(n2CCc2ccc(C(F)(F)F)nc2)CCN(C)C1 [Compound 353]"
  inhibition at 1 µM: "10%"
